- run-description: Mouse PK study (IV and PO), plasma parent compound and psilocin by LC-MS/MS
- Format: in vivo
- experimental-context: male, C57Bl/6, mouse, plasma, po, 3 mg/kg, C(I) in plasma; 3 mg/kg oral C(I); per animal; read-out: AUC0-inf
quantity: AUC(0-inf) (ng·h/mL)
Respond numerically; units are ng·h/mL and should not be typed.

query: Please report the recorded AUC(0-inf) for CN(C)CCc1c[nH]c2cccc(OC(=O)c3ccc(Br)cc3)c12 .
result: 6.87

====

- run-description: Mouse PK study (IV and PO), plasma parent compound and psilocin by LC-MS/MS
- Format: in vivo
- experimental-context: male, C57Bl/6, mouse, plasma, oral, 10 mg/kg, 10 mg/kg oral C(I); 1 h; per animal; BLQ <0.5 ng/mL; read-out: Plasma concentration of C(I)
quantity: concentration at 1 h

query: Please report the recorded concentration at 1 h for CN(C)CCc1c[nH]c2cccc(OC(=O)c3ccc(Br)cc3)c12 .
result: 3.79 ng/mL

====

- run-description: Mouse PK study (IV and PO), plasma parent compound and psilocin by LC-MS/MS
- Assay type: in vivo
- experimental-context: male, C57Bl/6, mouse, plasma, oral, 10 mg/kg, 10 mg/kg oral C(I); 6 h; Mean ± SD; read-out: Plasma concentration of C(I)
quantity: concentration at 6 h
Be sure to follow the number with its unit.

query: Please report the recorded concentration at 6 h for CN(C)CCc1c[nH]c2cccc(OC(=O)c3ccc(Br)cc3)c12 .
result: 0.89 ng/mL

====

- run-description: Mouse PK study (IV and PO), plasma parent compound and psilocin by LC-MS/MS
- Type: in vivo
- experimental-context: male, C57Bl/6, mouse, plasma, intravenous, 1 mg/kg, 1 mg/kg i.v. C(XX); 1 h; Mean ± SD; read-out: Plasma concentration of C(XX)
quantity: concentration at 1 h (ng/mL)
Respond numerically; units are ng/mL and should not be typed.

query: Please report the recorded concentration at 1 h for CN(C)CCc1c[nH]c2cccc(OC(=O)c3cccc4c3OCCO4)c12 .
result: 8.43

====

- run-description: Mouse PK study (IV and PO), plasma parent compound and psilocin by LC-MS/MS
- Type: in vivo
- experimental-context: male, C57Bl/6, mouse, plasma, oral, 3 mg/kg, 3 mg/kg oral C(I); 4 h; Mean ± SD; read-out: Plasma concentration of C(I)
quantity: concentration at 4 h (ng/mL)
Respond numerically; units are ng/mL and should not be typed.

query: Please report the recorded concentration at 4 h for CN(C)CCc1c[nH]c2cccc(OC(=O)c3ccc(Br)cc3)c12 .
result: 0.907

====

- run-description: Mouse PK study (IV and PO), plasma parent compound and psilocin by LC-MS/MS
- Type: in vivo
- experimental-context: male, C57Bl/6, mouse, plasma, po, 10 mg/kg, C(I) in plasma; 10 mg/kg oral C(I); mean (n = 2); read-out: AUC0-inf
quantity: AUC(0-inf) (ng·h/mL)
Respond numerically; units are ng·h/mL and should not be typed.

query: Please report the recorded AUC(0-inf) for CN(C)CCc1c[nH]c2cccc(OC(=O)c3ccc(Br)cc3)c12 .
result: 20.2

====

- run-description: Mouse PK study (IV and PO), plasma parent compound and psilocin by LC-MS/MS
- Assay type: in vivo
- experimental-context: male, C57Bl/6, mouse, plasma, intravenous, 1 mg/kg, 1 mg/kg i.v. C(XX); 2 h; per animal; BLQ <0.25 ng/mL; read-out: Plasma concentration of C(XX)
quantity: concentration at 2 h (ng/mL)
Respond numerically; units are ng/mL and should not be typed.

query: Please report the recorded concentration at 2 h for CN(C)CCc1c[nH]c2cccc(OC(=O)c3cccc4c3OCCO4)c12 .
result: 0.968

====

- run-description: Mouse PK study (IV and PO), plasma parent compound and psilocin by LC-MS/MS
- Format: in vivo
- experimental-context: male, C57Bl/6, mouse, plasma, po, 10 mg/kg, C(I) in plasma; 10 mg/kg oral C(I); mean (n = 2); read-out: MRT0-inf
quantity: MRT inf (h)
Respond numerically; units are h and should not be typed.

query: Please report the recorded MRT inf for CN(C)CCc1c[nH]c2cccc(OC(=O)c3ccc(Br)cc3)c12 .
result: 2.53

====

- run-description: Mouse PK study (IV and PO), plasma parent compound and psilocin by LC-MS/MS
- Assay type: in vivo
- experimental-context: male, C57Bl/6, mouse, plasma, po, 3 mg/kg, C(I) in plasma; 3 mg/kg oral C(I); mean (n = 1); read-out: Apparent t1/2 (converted)
quantity: half-life (h)
Respond numerically; units are h and should not be typed.

query: Please report the recorded half-life for CN(C)CCc1c[nH]c2cccc(OC(=O)c3ccc(Br)cc3)c12 .
result: 3.01

====

- run-description: Mouse PK study (IV and PO), plasma parent compound and psilocin by LC-MS/MS
- Format: in vivo
- experimental-context: male, C57Bl/6, mouse, plasma, po, 1 mg/kg, C(I) in plasma; 1 mg/kg oral C(I); Mean ± SD; read-out: Cmax
quantity: Cmax (ng/mL)
Respond numerically; units are ng/mL and should not be typed.

query: Please report the recorded Cmax for CN(C)CCc1c[nH]c2cccc(OC(=O)c3ccc(Br)cc3)c12 .
result: 0.877

====

- run-description: Mouse PK study (IV and PO), plasma parent compound and psilocin by LC-MS/MS
- Type: in vivo
- experimental-context: male, C57Bl/6, mouse, plasma, po, 3 mg/kg, C(I) in plasma; 3 mg/kg oral C(I); Mean ± SD; read-out: tmax
- From the text: Briefly, the procedure was as follows. […] 19, 2022.
quantity: Tmax (min)
Respond numerically; units are min and should not be typed.

query: Please report the recorded Tmax for CN(C)CCc1c[nH]c2cccc(OC(=O)c3ccc(Br)cc3)c12 [C(I)] .
result: 25

====

- run-description: Mouse PK study (IV and PO), plasma parent compound and psilocin by LC-MS/MS
- Type: in vivo
- experimental-context: male, C57Bl/6, mouse, plasma, iv, 1 mg/kg, 1 mg/kg i.v. C(XX); mean ± SD; read-out: Apparent t1/2 of C(XX) in plasma (converted)
quantity: half-life (min)
Respond numerically; units are min and should not be typed.

query: Please report the recorded half-life for CN(C)CCc1c[nH]c2cccc(OC(=O)c3cccc4c3OCCO4)c12 [C(XX)] .
result: 33.8

====

- run-description: Mouse PK study (IV and PO), plasma parent compound and psilocin by LC-MS/MS
- Assay type: in vivo
- experimental-context: male, C57Bl/6, mouse, plasma, intravenous, 1 mg/kg, 1 mg/kg i.v. C(XX); 5 min; per animal; BLQ <0.25 ng/mL; read-out: Plasma concentration of C(XX)
quantity: concentration at 5 min (ng/mL)
Respond numerically; units are ng/mL and should not be typed.

query: Please report the recorded concentration at 5 min for CN(C)CCc1c[nH]c2cccc(OC(=O)c3cccc4c3OCCO4)c12 [C(XX)] .
result: 109

====

- run-description: Mouse PK study (IV and PO), plasma parent compound and psilocin by LC-MS/MS
- Assay type: in vivo
- experimental-context: male, C57Bl/6, mouse, plasma, po, 3 mg/kg, C(I) in plasma; 3 mg/kg oral C(I); per animal; read-out: MRT0-inf
quantity: MRT inf
Be sure to follow the number with its unit.

query: Please report the recorded MRT inf for CN(C)CCc1c[nH]c2cccc(OC(=O)c3ccc(Br)cc3)c12 .
result: 4.12 h

====

- run-description: Mouse PK study (IV and PO), plasma parent compound and psilocin by LC-MS/MS
- Format: in vivo
- experimental-context: male, C57Bl/6, mouse, plasma, po, 1 mg/kg, C(I) in plasma; 1 mg/kg oral C(I); Mean ± SD; read-out: tmax
quantity: Tmax (min)
Respond numerically; units are min and should not be typed.

query: Please report the recorded Tmax for CN(C)CCc1c[nH]c2cccc(OC(=O)c3ccc(Br)cc3)c12 .
result: 30

====

- run-description: Mouse PK study (IV and PO), plasma parent compound and psilocin by LC-MS/MS
- Assay type: in vivo
- experimental-context: male, C57Bl/6, mouse, plasma, po, 1 mg/kg, C(I) in plasma; 1 mg/kg oral C(I); Mean ± SD; read-out: AUC0-tlast
quantity: AUC(0-t) (ng·h/mL)
Respond numerically; units are ng·h/mL and should not be typed.

query: Please report the recorded AUC(0-t) for CN(C)CCc1c[nH]c2cccc(OC(=O)c3ccc(Br)cc3)c12 .
result: 1.34

====

- measurement-target: DAT (Homo sapiens, UniProt Q01959)
- Sequence (Q01959 whole entry): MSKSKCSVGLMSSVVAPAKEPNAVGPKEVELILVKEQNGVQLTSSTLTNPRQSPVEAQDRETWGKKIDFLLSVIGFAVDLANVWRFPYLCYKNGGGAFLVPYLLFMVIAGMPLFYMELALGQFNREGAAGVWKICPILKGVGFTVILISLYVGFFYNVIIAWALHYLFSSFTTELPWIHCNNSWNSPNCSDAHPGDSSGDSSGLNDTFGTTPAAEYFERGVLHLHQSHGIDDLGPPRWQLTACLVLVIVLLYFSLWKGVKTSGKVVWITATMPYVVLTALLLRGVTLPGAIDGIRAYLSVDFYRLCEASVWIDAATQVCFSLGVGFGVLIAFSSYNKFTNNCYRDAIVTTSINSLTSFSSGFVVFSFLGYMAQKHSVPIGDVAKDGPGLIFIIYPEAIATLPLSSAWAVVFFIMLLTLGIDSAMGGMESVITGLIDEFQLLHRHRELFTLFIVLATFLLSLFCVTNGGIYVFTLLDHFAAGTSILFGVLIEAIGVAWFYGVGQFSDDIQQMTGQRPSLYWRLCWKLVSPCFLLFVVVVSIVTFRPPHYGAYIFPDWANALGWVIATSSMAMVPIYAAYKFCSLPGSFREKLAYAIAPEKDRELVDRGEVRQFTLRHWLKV
- run-description: Neurotransmitter transporter uptake assay, blocker
pIC50: −log10 of the molar value.
quantity: pIC50

query: Please report the recorded pIC50 for CN(C)CCc1c[nH]c2cccc(OC(=O)c3ccc(Br)cc3)c12 [C(I)] .
result: 4.37

====

- run-description: Mouse PK study (IV and PO), plasma parent compound and psilocin by LC-MS/MS
- Type: in vivo
- experimental-context: male, C57Bl/6, mouse, plasma, po, 3 mg/kg, C(I) in plasma; 3 mg/kg oral C(I); per animal; M43 estimate may not be accurate; read-out: Apparent t1/2 (converted)
quantity: half-life (h)
Respond numerically; units are h and should not be typed.

query: Please report the recorded half-life for CN(C)CCc1c[nH]c2cccc(OC(=O)c3ccc(Br)cc3)c12 [C(I)] .
result: 3.01
